Target of assay: T1, human melanocortin-5 receptor (hMC5-R) (human, UniProt P33032 1-325)
T1 construct: whole, on cells; membranes prepared from hMC5-R cells were used; also called Melanocortin Receptor 5
T1 sequence (P33032 whole entry): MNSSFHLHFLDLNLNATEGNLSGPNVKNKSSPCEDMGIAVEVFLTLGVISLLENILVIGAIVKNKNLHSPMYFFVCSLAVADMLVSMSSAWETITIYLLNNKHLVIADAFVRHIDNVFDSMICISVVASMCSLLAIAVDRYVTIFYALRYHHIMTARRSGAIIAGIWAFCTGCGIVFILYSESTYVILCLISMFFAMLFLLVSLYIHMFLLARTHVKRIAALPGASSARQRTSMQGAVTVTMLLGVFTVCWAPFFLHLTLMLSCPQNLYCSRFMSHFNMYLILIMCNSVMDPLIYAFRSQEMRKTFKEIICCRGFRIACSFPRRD
Experiment description: 125I-NDP-α-MSH competition, hMC5-R membranes
Procedure: The competitive inhibition binding assay was conducted using membranes prepared from hMC3-R, hMC4-R, hMC5-R, and B-16 mouse melanoma cells (containing MC1-R) using 0.4 nM ¹²⁵I-NDP-alpha-MSH (New England Nuclear, Boston, Mass., USA) in 50 mM HEPES buffer containing 1 mM MgCl₂, 2 mM CaCl₂, and 5 mM KCl, at pH 7.2. […] The filter was dried and counted in a gamma counter for remaining radioactivity bound to the membranes. […]
Square brackets hold non-standard residues; d marks the D form. Nle = CCCC[C@H](N)C(=O)O
Property measured: % Inhibition at 1 µM (%)
State the answer as a number, implicitly in %.

# Binder, % Inhibition at 1 µM (%)
rows = [
    ("Ac-SYS[Nle]EHFRWGKGCV-NH2 (also: oxorhenium(V) N3S1 chelate at Cys13) [metallopeptide 1-2]", 37),
    ("Ac-SYSC[Nle]EHFRWGKPV-NH2 (also: oxorhenium(V) N3S1 chelate at Cys4) [metallopeptide 1-11]", 6),
    ("Ac-SYS[Nle]EHFRWGKCPV-NH2 (also: oxorhenium(V) N3S1 chelate at Cys12) [metallopeptide 1-3]", 12),
    ("Ac-SYS[Nle]EHFRWGKGVC-NH2 (not fully specified; also: oxorhenium(V) N3S1 chelate at Cys14) [metallopeptide 1-1]", 68),
    ("Ac-SYS[Nle]CEHFRWGKPV-NH2 (also: oxorhenium(V) N3S1 chelate at Cys5) [metallopeptide 1-10]", 5),
    ("Ac-SYCS[Nle]EHFRWGKPV-NH2 (also: oxorhenium(V) N3S1 chelate at Cys3) [metallopeptide 1-12]", 19),
    ("Ac-SYS[Nle]EHFRCWGKPV-NH2 (also: oxorhenium(V) N3S1 chelate at Cys9) [metallopeptide 1-6]", 0),
    ("Ac-SYS[Nle]ECHFRWGKPV-NH2 (also: oxorhenium(V) N3S1 chelate at Cys6) [metallopeptide 1-9]", 6),
]

I have this binder here, Ac-SYS[Nle]EHFRWCGKPV-NH2 (also: oxorhenium(V) N3S1 chelate at Cys10) [metallopeptide 1-5] , and I need its recorded % Inhibition at 1 µM.
0

Name the reported % Inhibition at 1 µM value associated with the binder Ac-SYS[Nle]EHFCRWGKPV-NH2 (also: oxorhenium(V) N3S1 chelate at Cys8) [metallopeptide 1-7]
0

Cited source for all entries: patent US20050282739A1
